assay text: Human liver microsomal stability of compound in microsomal protein, PBS buffer pH 7.4, NADPH, glucose-6-phosphate and glucose-6-phosphate dehydrogenase media. Aliquotes were taken at 5 time points and after stopping the reaction, supernatants were analyzed using HPLC coupled with a tandem mass spectrometer. The elimination constant, half-life, and intrinsic clearance are determined as results using linear regression analysis.
Format: ADME, microsomes, Microsome
condition notes: microsomes
Label label 0 if Remaining falls below 90%; label label 1 in every other case.

Prompt line: Confirm if Remaining reported for the compound C=CC[C@H]1NCc2cc(NC(=O)c3cc(F)cc4[nH]ncc34)ccc21 is 90% or above.
Response line: label 1

Prompt line: Confirm if Remaining reported for the compound O=C(O)COc1cccc(NC(=O)c2cc(Cl)cc(NC(=O)OCc3ccccc3)c2)c1 is 90% or above.
Response line: label 1

Prompt line: Confirm if Remaining reported for the compound O=C(NCCCF)[C@H](Nc1ccc2c(c1)CNC2)c1cc(Cl)cc(C2CC2)c1 is 90% or above.
Response line: label 0

Prompt line: Confirm if Remaining reported for the compound O=C(NCC(F)F)[C@H](Nc1ccc2c(c1)CNC2)c1cc(Cl)cc2c1CCC2 is 90% or above.
Response line: label 0

Prompt line: Confirm if Remaining reported for the compound NCc1cccc(NC(=O)[C@@H](NC(=O)OCc2ccccc2)C(C2CCC2)C2CCC2)c1 is 90% or above.
Response line: label 0

Prompt line: Confirm if Remaining reported for the compound CN(c1ccc2c(c1)CNC2)[C@H](C(=O)NCC(F)F)c1cc(Cl)cc(C2CC2)c1 is 90% or above.
Response line: label 0

Prompt line: Confirm if Remaining reported for the compound O=C(Nc1cc(Cl)cc([C@H](Nc2cccc(-c3nn[nH]n3)c2)C(=O)NCc2ccccc2)c1)OCc1ccccc1 is 90% or above.
Response line: label 1

Prompt line: Confirm if Remaining reported for the compound O=C(O)Cn1ncc2cc(-c3cc(Cl)cc(NC(=O)OCc4ccccc4)c3)ccc21 is 90% or above.
Response line: label 1

Prompt line: Confirm if Remaining reported for the compound C=CC[C@H](Nc1ccc(-c2nn[nH]n2)cc1)c1cc(Cl)cc(NC(=O)OCc2ccccc2)c1 is 90% or above.
Response line: label 0

Prompt line: Confirm if Remaining reported for the compound CC(C)c1nc2c(C(=O)Nc3cccc(CN)c3)cccc2[nH]1 is 90% or above.
Response line: label 1

Prompt line: Confirm if Remaining reported for the compound COc1cc(C#N)cc([C@H](Nc2ccc3c(c2)CNC3)C(=O)NCC(F)F)c1 is 90% or above.
Response line: label 1

Prompt line: Confirm if Remaining reported for the compound N#C[C@H](Nc1ccc2c(c1)CNC2)c1cc(Cl)cc2[nH]ncc12 is 90% or above.
Response line: label 0

Prompt line: Confirm if Remaining reported for the compound O=C(NCC(F)F)[C@H](Nc1cc2c(cc1Br)CNC2)c1cc(Cl)cc(C2CC2)c1 is 90% or above.
Response line: label 0

Prompt line: Confirm if Remaining reported for the compound NCc1cccc(NC(=O)CN(C(=O)OCc2ccccc2)c2ccc(OCc3ccccc3)cc2)c1 is 90% or above.
Response line: label 0

Prompt line: Confirm if Remaining reported for the compound O=C(Nc1ccc2c(c1)CNC2)c1cc(Cl)cc2c1cnn2C1CCC1 is 90% or above.
Response line: label 1

Prompt line: Confirm if Remaining reported for the compound CNC(=O)c1cc(Br)cc([C@H](Nc2ccc3c(c2)CNC3)C(=O)NCC(F)F)c1 is 90% or above.
Response line: label 1

Prompt line: Confirm if Remaining reported for the compound O=C(Nc1ccc2c(c1)CNC2)c1cc(Cl)cc2c1CCC2 is 90% or above.
Response line: label 0

Prompt line: Confirm if Remaining reported for the compound NCc1cccc(NC(=O)c2cc(OCc3ccccc3)ccc2CNC(=O)OCc2ccccc2)c1 is 90% or above.
Response line: label 0

Prompt line: Confirm if Remaining reported for the compound NCc1cccc(NC(=O)[C@@H](NC(=O)OCc2ccccc2)c2ccc(OCc3ccccc3)cc2)c1 is 90% or above.
Response line: label 0

====

assay text: Human liver microsomal stability of compound in microsomal protein, PBS buffer pH 7.4, NADPH, glucose-6-phosphate and glucose-6-phosphate dehydrogenase media. Aliquotes were taken at 5 time points and after stopping the reaction, supernatants were analyzed using HPLC coupled with a tandem mass spectrometer. The elimination constant, half-life, and intrinsic clearance are determined as results using linear regression analysis.
Assay type: ADME, microsomes, Microsome
condition notes: microsomes
property name: Remaining
Answer by giving the amount and then stating its unit.

Prompt line: Read off the recorded Remaining for O=C(Nc1cc2c(cc1C1CC1)CNC2)c1cc(F)cc2[nH]ncc12
Response line: 104.365%

Prompt line: Read off the recorded Remaining for O=C(NCC(F)F)[C@H](Nc1ccc2c(c1)CNC2)c1cc(Br)cc2nc[nH]c12
Response line: 100.118%

Prompt line: Read off the recorded Remaining for Cc1cc(-c2ccc([C@@H](NC(=O)OCc3ccccc3)C(=O)Nc3cccc(CN)c3)cc2)cs1
Response line: 62.909%

Prompt line: Read off the recorded Remaining for O=C1Cc2c(cc(F)cc2C(=O)Nc2ccc3c(c2)CNC3)N1
Response line: 99%

Prompt line: Read off the recorded Remaining for O=C(O)c1cc(Cl)c(F)cc1S(=O)(=O)Nc1ccc(Oc2ccccc2Cl)cc1
Response line: 33.369%

Prompt line: Read off the recorded Remaining for CC(C)n1cc2c(C(=O)Nc3ccc4c(c3)CNC4)cc(Cl)cc2n1
Response line: 96.618%

Prompt line: Read off the recorded Remaining for COc1cc(-c2cc(NC(=O)c3cc(F)cc4[nH]ncc34)cc3c2CNC3)ccn1
Response line: 90.289%

Prompt line: Read off the recorded Remaining for CNC(=O)[C@H](Nc1ccc2c(c1)CNC2)c1cc(Cl)cc2[nH]c(-c3ccccc3)nc12
Response line: 91.331%

Prompt line: Read off the recorded Remaining for NCc1cccc(NC(=O)C[C@@H](NC(=O)OCc2ccccc2)c2ccc(OCc3ccccc3)cc2)c1
Response line: 76.547%

Prompt line: Read off the recorded Remaining for CCc1cc(C(=O)Nc2cccc(CN)c2)sc1-c1ccc(Cl)cc1
Response line: 114.72%

====

assay text: Human liver microsomal stability of compound in microsomal protein, PBS buffer pH 7.4, NADPH, glucose-6-phosphate and glucose-6-phosphate dehydrogenase media. Aliquotes were taken at 5 time points and after stopping the reaction, supernatants were analyzed using HPLC coupled with a tandem mass spectrometer. The elimination constant, half-life, and intrinsic clearance are determined as results using linear regression analysis.
Type: ADME, microsomes, Microsome
condition notes: liver microsomes
Exercise: for every item that follows, state its recorded half-life.
The response must be a number in h with no trailing unit.

Prompt line: Read off the recorded half-life for CNC(=O)[C@H](Nc1cc(Cl)cc(NC(=O)OCc2ccccc2)c1)c1cccc(-c2nn[nH]n2)c1
Response line: 1.31

Prompt line: Read off the recorded half-life for NCc1cccc(NC(=O)c2cc(OCc3ccccc3)ccc2CNC(=O)OCc2ccccc2)c1
Response line: 1.31

Prompt line: Read off the recorded half-life for COCCNC(=O)[C@H](Nc1ccc2c(c1)CNC2)c1cc(Cl)cc(C2CC2)c1
Response line: 1.42

Prompt line: Read off the recorded half-life for NCc1cccc(NC(=O)C[C@@H](NC(=O)OCc2ccccc2)c2ccc(OCc3ccccc3)cc2)c1
Response line: 1.64

Prompt line: Read off the recorded half-life for O=C(NCC(F)F)[C@H](Nc1ccc2c(c1)CNC2)c1cc(Cl)cc2c1CCC2
Response line: 1.99

Prompt line: Read off the recorded half-life for O=C(O)c1cc(Cl)c(F)cc1S(=O)(=O)Nc1ccc(Oc2ccccc2Cl)cc1
Response line: 0.413

Prompt line: Read off the recorded half-life for O=C(O)c1cc(Cl)ccc1NS(=O)(=O)c1ccc(Oc2ccccc2Cl)cc1
Response line: 0.18

Prompt line: Read off the recorded half-life for CCOc1cccc(-c2ccc(S(=O)(=O)Nc3ccc(Cl)cc3C(=O)O)cc2)c1
Response line: 0.233

====

assay text: Human liver microsomal stability of compound in microsomal protein, PBS buffer pH 7.4, NADPH, glucose-6-phosphate and glucose-6-phosphate dehydrogenase media. Aliquotes were taken at 5 time points and after stopping the reaction, supernatants were analyzed using HPLC coupled with a tandem mass spectrometer. The elimination constant, half-life, and intrinsic clearance are determined as results using linear regression analysis.
Format: ADME, microsomes, Microsome
condition notes: liver microsomes
property name: microsomal CLint

Prompt line: Read off the recorded microsomal CLint for COc1ccc(-c2nc3c(C(=O)Nc4ccc5c(c4)CNC5)cc(F)cc3[nH]2)nn1
Response line: < 10 µL/min/mg

Prompt line: Read off the recorded microsomal CLint for Cn1c(=O)[nH]c2c(C(=O)Nc3ccc4c(c3)CNC4)cc(Br)cc21
Response line: < 10 µL/min/mg

Prompt line: Read off the recorded microsomal CLint for O=C(Nc1ccc2c(c1)CNC2)c1cc(F)cc2[nH]c(-c3ccc(F)cc3)nc12
Response line: < 10 µL/min/mg

Prompt line: Read off the recorded microsomal CLint for Cc1cc([C@H](Nc2ccc3c(c2)CNC3)C(=O)NCC(F)F)cc(C(F)(F)F)c1
Response line: < 10 µL/min/mg

Prompt line: Read off the recorded microsomal CLint for O=C(Nc1ccc2c(c1)CNC2)c1cc(Cl)cc2[nH]ncc12
Response line: < 10 µL/min/mg

Prompt line: Read off the recorded microsomal CLint for O=C(Nc1cc2c(c(-c3c[nH]c(=O)c(F)c3)c1)CNC2)c1cc(F)cc2[nH]ncc12
Response line: < 10 µL/min/mg

Prompt line: Read off the recorded microsomal CLint for O=C(Nc1ccc2c(c1)CNC2)c1cc(Cl)cc2c1CCC2
Response line: < 10 µL/min/mg

Prompt line: Read off the recorded microsomal CLint for O=C(NCC(F)F)[C@H](Nc1ccc2c(c1)CNC2)c1cc(Br)cc2nc[nH]c12
Response line: < 10 µL/min/mg

Prompt line: Read off the recorded microsomal CLint for CC(C)c1nc2c(C(=O)Nc3cccc(CN)c3)cccc2[nH]1
Response line: < 10 µL/min/mg

Prompt line: Read off the recorded microsomal CLint for COc1cc(-c2cc(NC(=O)c3cc(F)cc4[nH]ncc34)cc3c2CNC3)ccn1
Response line: < 10 µL/min/mg

Prompt line: Read off the recorded microsomal CLint for O=C(Nc1ccc2c(c1)CNC2)c1cc(Cl)cc2cn[nH]c12
Response line: < 10 µL/min/mg

Prompt line: Read off the recorded microsomal CLint for CNC(=O)[C@H](Nc1cc(CN)cc(-c2nn[nH]n2)c1)c1cc(Cl)cc(C2CC2)c1
Response line: < 10 µL/min/mg

Prompt line: Read off the recorded microsomal CLint for COc1cc(C#N)cc([C@H](Nc2ccc3c(c2)CNC3)C(=O)NCC(F)F)c1
Response line: < 10 µL/min/mg

Prompt line: Read off the recorded microsomal CLint for O=C(Nc1cc(Cl)cc(C(=O)Nc2n[nH]c3c2CNC3)c1)OCc1ccccc1
Response line: < 10 µL/min/mg

Prompt line: Read off the recorded microsomal CLint for OCC#C[C@H](Nc1ccc2c(c1)CNC2)c1cc(Cl)cc2[nH]ncc12
Response line: < 10 µL/min/mg

Prompt line: Read off the recorded microsomal CLint for O=C(Nc1ccc2c(c1)CNC2)c1cc(Cl)cc2c1cnn2C1CCC1
Response line: < 10 µL/min/mg

Prompt line: Read off the recorded microsomal CLint for CO[C@H]1C[C@H](n2ncc3c(C(=O)Nc4ccc5c(c4)CNC5)cc(Cl)cc32)C1
Response line: < 10 µL/min/mg

Prompt line: Read off the recorded microsomal CLint for CCc1cc(C(=O)Nc2cccc(CN)c2)sc1-c1ccc(Cl)cc1
Response line: < 10 µL/min/mg

Prompt line: Read off the recorded microsomal CLint for COCc1cc(Cl)cc([C@H](Nc2ccc3c(c2)CNC3)C(=O)NCC(F)F)c1
Response line: < 10 µL/min/mg
